Assay: Pharmacokinetics of LOS and EXP3174 in the hypertension rat model (LC-MS)
Type: in vivo, Wistar rats
Conditions: Wistar, rat, plasma, po, 10 mg/kg/day, hypertensive rats (L-NAME); LOS 10 mg/kg/d ig + SMI 2 ml/kg/d tail vein (SMI-L+LOS group)
observable: Tmax (h)

>>> recorded_value("CCCCc1nc(Cl)c(CO)n1Cc1ccc(-c2ccccc2-c2nn[nH]n2)cc1")
2.2
>>> recorded_value("CCCCc1nc(Cl)c(C(=O)O)n1Cc1ccc(-c2ccccc2-c2nn[nH]n2)cc1")
4.8

###

Experiment: Pharmacokinetics of LOS and EXP3174 in the hypertension rat model (LC-MS)
Assay type: in vivo, Wistar rats
Conditions: Wistar, rat, plasma, po, 10 mg/kg/day, hypertensive rats (L-NAME); LOS 10 mg/kg/d ig + SMI 2 ml/kg/d tail vein (SMI-L+LOS group)
observable: half-life (h)

>>> recorded_value("CCCCc1nc(Cl)c(CO)n1Cc1ccc(-c2ccccc2-c2nn[nH]n2)cc1 [LOS, losartan potassium]")
6.74
>>> recorded_value("CCCCc1nc(Cl)c(C(=O)O)n1Cc1ccc(-c2ccccc2-c2nn[nH]n2)cc1 [EXP3174, losartan carboxylic acid]")
6.67

###

Assay: Pharmacokinetics of LOS and EXP3174 in the hypertension rat model (LC-MS)
Assay type: in vivo, Wistar rats
Settings: Wistar, rat, plasma, po, 10 mg/kg/day, hypertensive rats (L-NAME); LOS 10 mg/kg/d ig + SMI 6 ml/kg/d tail vein (SMI-H+LOS group)
observable: Tmax (h)

>>> recorded_value("CCCCc1nc(Cl)c(CO)n1Cc1ccc(-c2ccccc2-c2nn[nH]n2)cc1")
2.33
>>> recorded_value("CCCCc1nc(Cl)c(C(=O)O)n1Cc1ccc(-c2ccccc2-c2nn[nH]n2)cc1")
6

###

molecules and their reported Cmax
Assay: Pharmacokinetics of LOS and EXP3174 in the hypertension rat model (LC-MS)
Assay type: in vivo, Wistar rats
Details: Wistar, rat, plasma, po, 10 mg/kg/day, hypertensive rats (L-NAME); LOS 10 mg/kg/d ig + SMI 6 ml/kg/d tail vein (SMI-H+LOS group)
observable: Cmax (ng/mL)

>>> recorded_value("CCCCc1nc(Cl)c(CO)n1Cc1ccc(-c2ccccc2-c2nn[nH]n2)cc1 [LOS, losartan potassium]")
156
>>> recorded_value("CCCCc1nc(Cl)c(C(=O)O)n1Cc1ccc(-c2ccccc2-c2nn[nH]n2)cc1 [EXP3174, losartan carboxylic acid]")
81.2

###

Experiment: Pharmacokinetics of LOS and EXP3174 in the hypertension rat model (LC-MS)
Format: in vivo, Wistar rats
Settings: Wistar, rat, plasma, po, 10 mg/kg/day, hypertensive rats (L-NAME); LOS 10 mg/kg/d ig + SMI 4 ml/kg/d tail vein (SMI-M+LOS group)
observable: AUC(0-inf) (ng·h/mL)

>>> recorded_value("CCCCc1nc(Cl)c(CO)n1Cc1ccc(-c2ccccc2-c2nn[nH]n2)cc1")
1430
>>> recorded_value("CCCCc1nc(Cl)c(C(=O)O)n1Cc1ccc(-c2ccccc2-c2nn[nH]n2)cc1")
1500
